The reported measurements were obtained from patent US20240327382A1.

Target: Full-length USP19 (Homo sapiens)
Sequence (O94966 1-1318): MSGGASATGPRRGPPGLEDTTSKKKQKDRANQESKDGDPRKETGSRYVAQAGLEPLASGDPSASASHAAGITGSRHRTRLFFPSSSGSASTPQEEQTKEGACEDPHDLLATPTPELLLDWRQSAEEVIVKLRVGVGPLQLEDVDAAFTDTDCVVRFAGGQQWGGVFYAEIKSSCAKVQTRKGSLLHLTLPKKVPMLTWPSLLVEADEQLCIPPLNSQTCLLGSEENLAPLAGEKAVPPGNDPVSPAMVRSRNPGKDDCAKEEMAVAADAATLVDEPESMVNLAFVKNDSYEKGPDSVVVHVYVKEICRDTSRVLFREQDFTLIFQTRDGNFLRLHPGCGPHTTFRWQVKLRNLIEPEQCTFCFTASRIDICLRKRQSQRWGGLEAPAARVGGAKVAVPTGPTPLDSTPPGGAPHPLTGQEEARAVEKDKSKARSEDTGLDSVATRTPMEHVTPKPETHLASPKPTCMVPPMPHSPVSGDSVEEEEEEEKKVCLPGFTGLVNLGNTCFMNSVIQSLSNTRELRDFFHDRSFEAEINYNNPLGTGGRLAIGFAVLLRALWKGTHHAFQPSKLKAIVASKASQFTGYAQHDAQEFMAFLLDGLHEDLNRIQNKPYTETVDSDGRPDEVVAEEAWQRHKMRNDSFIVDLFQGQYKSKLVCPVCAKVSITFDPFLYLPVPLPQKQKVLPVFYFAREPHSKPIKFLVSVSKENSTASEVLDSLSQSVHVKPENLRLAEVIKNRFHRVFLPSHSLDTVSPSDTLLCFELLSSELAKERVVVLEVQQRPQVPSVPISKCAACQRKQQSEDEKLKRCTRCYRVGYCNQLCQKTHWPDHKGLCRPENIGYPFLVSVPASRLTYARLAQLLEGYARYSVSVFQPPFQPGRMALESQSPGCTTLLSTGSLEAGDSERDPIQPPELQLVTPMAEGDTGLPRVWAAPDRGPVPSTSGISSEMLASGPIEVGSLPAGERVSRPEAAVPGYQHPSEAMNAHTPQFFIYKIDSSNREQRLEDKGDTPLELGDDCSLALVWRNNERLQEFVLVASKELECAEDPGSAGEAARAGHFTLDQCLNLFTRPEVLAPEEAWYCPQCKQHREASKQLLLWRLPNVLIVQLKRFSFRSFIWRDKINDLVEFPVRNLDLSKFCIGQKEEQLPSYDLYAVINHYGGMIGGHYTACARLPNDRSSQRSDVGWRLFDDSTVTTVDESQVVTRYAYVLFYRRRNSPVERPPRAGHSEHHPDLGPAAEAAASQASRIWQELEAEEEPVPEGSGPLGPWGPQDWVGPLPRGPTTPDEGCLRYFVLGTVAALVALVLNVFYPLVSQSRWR
Structures can show the parent of a compound that is named as a salt.
test_readout: IC50

Qu. If you can, please state the reported IC50 value of "N[C@@H]1CCN(C(=O)N2CCC(Cn3cnc(-c4ccccc4)cc3=O)CC2)[C@H](c2ccccc2)C1" .
Ans. 10 to 100 nM

Qu. If you can, please state the reported IC50 value of "O=C(N1CC[C@@H](Cn2cnc(-c3ccccc3)cc2=O)C2(CCCC2)C1)N1CC[C@@H](Nc2ccccc2)C[C@H]1c1ccccc1" .
Ans. 1000 to 20000 nM

Qu. If you can, please state the reported IC50 value of N[C@@H]1CCN(C(=O)N2CC[C@@H](Cn3cnc4ccc(F)cc4c3=O)C3(CCCC3)C2)[C@H](c2cc(F)cc(F)c2)C1 [Example 181, hydrochloride] .
Ans. < 10 nM

Qu. If you can, please state the reported IC50 value of "N[C@@H]1CCN(C(=O)N2CC[C@@H](Cn3cnc(-c4ccccc4)cc3=O)C3(CCCC3)C2)[C@H](c2cc(F)cc(F)c2)C1" .
Ans. < 10 nM

Qu. If you can, please state the reported IC50 value of "CN[C@@H]1CCN(C(=O)N2CC[C@@H](Cn3ccc(Cl)cc3=O)C3(CCCC3)C2)[C@H](c2ccccc2)C1" .
Ans. < 10 nM

Qu. If you can, please state the reported IC50 value of O=C(N1CC[C@H](Cn2ccc(-c3ccccc3)cc2=O)C2(CCCC2)C1)N1CCNC[C@H]1c1ccccc1 (single isomer, unassigned) .
Ans. 1000 to 20000 nM

Qu. If you can, please state the reported IC50 value of C[C@H](CC(F)(F)F)C(=O)N1CCC(Cn2ccc(-c3ccccc3)cc2=O)C2(CCCC2)C1 (some centres unmarked) .
Ans. 1000 to 20000 nM

Qu. If you can, please state the reported IC50 value of "CN[C@@H]1CCN(C(=O)N2CC[C@@H](Cn3cnc4ccc(Cl)cc4c3=O)C3(CCCC3)C2)[C@H](c2cc(F)ccc2F)C1" .
Ans. < 10 nM

Qu. If you can, please state the reported IC50 value of "O=C(N1CCC(Cn2cnc(-c3ccccc3)cc2=O)CC1)N1CCNC[C@H]1c1ccccc1" .
Ans. 100 to 1000 nM

Qu. If you can, please state the reported IC50 value of "CN[C@@H]1CCN(C(=O)N2CC[C@@H](Cn3ccc(-c4ccccc4OC)cc3=O)C3(CCCC3)C2)[C@H](c2cccc(F)c2F)C1" .
Ans. < 10 nM

Qu. If you can, please state the reported IC50 value of "CN[C@@H]1CCN(C(=O)N2CC[C@@H](Cn3cnc(-c4ccccc4)cc3=O)C3(CCCC3)C2)[C@H](c2ccccc2)C1" .
Ans. < 10 nM
